System: multidrug-resistant HIV-1 clinical isolate, patient 28
procedure-text: microbe, parasite or virus in culture
Assay type: cell-based
test-parameters: Human immunodeficiency virus 1; Patient Isolate 28
reported-metric: IC50 (nM)
Provide only the numeric value, understood in nM.

Briefly, IC50 measured for CC(C)c1nc(CN(C)C(=O)N[C@H](C(=O)N[C@@H](Cc2ccccc2)C[C@H](O)[C@H](Cc2ccccc2)NC(=O)OCc2cncs2)C(C)C)cs1 : 2660

Briefly, IC50 measured for CC(C)(C)NC(=O)[C@@H]1CN(Cc2cccnc2)CCN1C[C@@H](O)C[C@@H](Cc1ccccc1)C(=O)N[C@H]1c2ccccc2C[C@H]1O : 1040
